Provenance of the data: PubChem BioAssay AID1745848

Potency values for the compounds below.
protocol details: Confirmatory qHTS for Inhibitors of ATXN expression; note: nearly all actives have a fitted effect of over 65% in size; note: potency is the fitted concentration of half-maximal effect
experimental context: ATXN2-luciferase reporter cells, luminescence, 24 h; series mostly up to 11.5 µM
The whole screen tested about 2,100 compounds, of which about 940 (45%) were called active. About 48% were inconclusive and are not listed. The set was probably picked from earlier hits. This is one part of the list.
readout type: Potency

>>> df
                                smiles_repr  readout_type            result
0   O=C(COc1ccc(Cl)cc1)N/N=C/c1cccc2cccnc12       Potency  25.1 µM (active)
1  COc1cccc(-c2cc3nc(-c4ccccc4)cc(N4CCN(C(=O)c5ccoc5)CC4)n3n2)c1       Potency  2.82 µM (active)
2  COc1ccccc1-c1cc2nc(-c3ccccc3)cc(N3CCN(C(=O)c4ccoc4)CC3)n2n1       Potency  12.6 µM (active)
3  COc1ccccc1-c1cc2nc(-c3ccccc3)cc(N3CCN(C(=O)c4ccco4)CC3)n2n1       Potency  12.6 µM (active)
4  S=C(NCCCN1CCOCC1)N1CCN(c2nc(-c3ccccc3)cs2)CC1       Potency  11.2 µM (active)
5    O=C(Nc1ccc(Cl)cc1)Nc1nc(-c2sccc2Br)cs1       Potency  6.31 µM (active)
6  O=C(N/N=C/c1sc(N2CCOCC2)nc1-c1ccccc1)c1ccccc1O       Potency  28.2 µM (active)
7    O=C(COc1ccc(F)cc1)N/N=C/c1cccc2cccnc12       Potency  3.55 µM (active)

###

protocol details: Confirmatory qHTS for Inhibitors of ATXN expression; note: nearly all actives have a fitted effect of over 65% in size
experimental context: ATXN2-luciferase reporter cells, luminescence, 24 h; series mostly up to 11.5 µM
About 940 (45%) of roughly 2,100 compounds were called active. Not shown: some 48% with an inconclusive outcome. Calls follow the shape of the dose curve; as a rule, active = well fitted inhibition curve with a large enough effect; inconclusive = small, poorly fitted or top-dose-only effect; inactive = no such curve, though single readings can be large or run the other way. So high a share suggests a set chosen from earlier hits. The list shows a part of the results.
Outcome codes: active, inactive

>>> print(df.to_string())
                                    compound  class_label
 0  CCCCCc1ccc(OCCCC[n+]2cccc(C)c2)c(CCCCC)c1       active
 1  N#Cc1c(Oc2ccc3ccccc3c2)sc(C(=O)c2ccccc2)c1N       active
 2  COc1ccccc1CNc1nc(NCc2ccc(NC(C)=O)cc2)c2sccc2n1       active
 3  COc1ccccc1CNc1nc(NCc2cccc(OC)c2OC)c2sccc2n1       active
 4  O=C(N/N=C/c1cc(Br)cc([N+](=O)[O-])c1O)c1ccc(NC(=O)c2ccc(F)cc2)cc1       active
 5     CCCCCc1ccc(OCCC[n+]2ccccc2)c(CCCCC)c1       active
 6  CC(C)CC(N)c1csc(Nc2ccc(C(=O)N(C)Cc3ccccc3)cn2)n1 (configuration not stated)       active
 7  Cc1cc(/C=N/n2cnnc2)c(C)n1-c1ccc(OCc2ccc(Cl)cc2Cl)cc1       active
 8  NC(Cc1ccccc1)c1csc(Nc2ccc(C(F)(F)F)cn2)n1 (configuration not stated)       active
 9              CC(=NNc1nc2ccccc2o1)c1ncccn1       active
10  COc1ccc(CC(N)c2csc(Nc3ccc(C(=O)c4ccccc4)cc3)n2)cc1 (configuration not stated)     inactive
11              C(=NN1CCCCCC1)c1ccc2ccccc2n1     inactive
12  CCOc1ccc(NCc2cccn2-c2nnc(N3CCC(C(=O)NCCCN4CC(C)CC(C)C4)CC3)s2)cc1 (configuration not stated)       active
13  CCC(C)N1C(=O)S/C(=C/c2ccc(Sc3nc4ccccc4[nH]3)o2)C1=O (configuration not stated)       active
14  O=C(c1cccc(Cl)c1)c1nn(-c2ccccc2)c(=O)cc1C(F)(F)F       active
15  Cc1cc(C)n(-c2nc(NCCN(C)C)c3c4c(sc3n2)COC(C)(C)C4)n1       active
16   CN(C)CCNc1ccc2ncn3c4ccc(O)cc4c(=O)c1c23       active
17             Cc1ccccc1N=Nc1ccc(O)c2ncccc12       active
18  NC(COCc1ccccc1)c1csc(Nc2ccc(C(F)(F)F)cn2)n1 (configuration not stated)       active
19  Cc1cc(C(=O)N/N=C/c2cc(Br)cc([N+](=O)[O-])c2O)c2ccccc2n1       active
20   COc1cccc(CNc2nc(NCc3ccccc3)nc3ccsc23)c1       active
21                     Cc1ccc2ccc3cccnc3c2n1       active

###

protocol details: Confirmatory qHTS for Inhibitors of ATXN expression; note: nearly all actives have a fitted effect of over 65% in size
experimental context: ATXN2-luciferase reporter cells, luminescence, 24 h; series mostly up to 11.5 µM
The whole screen tested about 2,100 compounds, of which about 940 (45%) were called active. Another 48% or so got no clear call; they are omitted. Calls come from the whole dose curve; as a rule, active = well fitted inhibition curve with a large enough effect; inconclusive = small, poorly fitted or top-dose-only effect; inactive = no such curve, though single readings can be large or run the other way. The set was probably picked from earlier hits. Some of the results follow.
Outcome codes: yes (1) for active, no (0) for inactive

In [3]: df
Out[3]:
                                   compound  class_label
0  CCOC(=O)N1CCN(c2ncnc3c2[nH]c2ccc(F)cc23)CC1      yes (1)
1  O=C(COC(=O)c1cc([N+](=O)[O-])ccc1N1CCOCC1)Nc1ccc(Cl)cn1      yes (1)
2  CC(=O)Nc1cccc(-c2ccnc3c2CC(C)(C(=O)Nc2ccc(Cl)cc2)O3)c1 (stereo not given)      yes (1)
3  Cc1[nH]c(-c2ccc(F)cc2)cc1C(=O)N1CCN(c2ccc(Cl)cc2)CC1      yes (1)
4  CC(=O)Nc1cccc(-c2ccnc3c2CC(C)(C(=O)Nc2cccc(Oc4ccccc4)c2)O3)c1 (stereo not given)      yes (1)
5       CCCCC(=O)N(CCOC)c1nnc(-c2ccccc2C)s1       no (0)
6  COc1ccccc1N1CCN(Cc2cc(Br)c(O)c3ncccc23)CC1      yes (1)
7  CCOc1ccccc1C(=O)Nc1ccc2nc(N3CCN(c4ncccn4)CC3)cc(C)c2c1      yes (1)
8               CCCCCC(=O)N/N=C(\C)c1ccccn1      yes (1)
9  COc1cc(C#Cc2c(-c3cncn3C)n(C)c3ccc(-c4cnc(OC)nc4)cc23)cc(OC)c1      yes (1)

###

protocol details: Confirmatory qHTS for Inhibitors of ATXN expression; note: nearly all actives have a fitted effect of over 65% in size
experimental context: ATXN2-luciferase reporter cells, luminescence, 24 h; series mostly up to 11.5 µM
In all, about 2,100 compounds went through this assay and about 940 (45%) were called active. Inconclusive results (about 48%) are left out. The call rests on the fitted dose curve; in most records, active means well fitted inhibition curve with a large enough effect; inconclusive means small, poorly fitted or top-dose-only effect; inactive means no such curve, though single readings can be large or run the other way. The set was probably picked from earlier hits. The list shows a part of the results.
Outcome codes: active, inactive

In [3]: df
Out[3]:
                                   compound  class_label
0  CN(c1ccccc1)S(=O)(=O)c1cccc(NC(=O)c2cc(=O)c3ccccc3o2)c1       active
1  CCn1c(COc2ccccc2C)nnc1SCC(=O)N1CCN(c2ccccc2)CC1       active
2  NS(=O)(=O)c1ccc(Sc2nc3ccccc3s2)c([N+](=O)[O-])c1       active
3  COc1cccc(NC(=S)/C(=C(\[O-])c2cc(C)n(-c3ccccc3F)c2C)[n+]2ccc(N(C)C)cc2)c1       active
4  Cc1nc2ccc(NC(=O)c3cccc(S(=O)(=O)N(C)c4ccccc4)c3)cc2s1       active
5  CN(Cc1cnc2nc(N)nc(N)c2n1)c1ccc(C(=O)NC(CCC(=O)O)C(=O)O)c2ccccc12 (centres undefined)       active
6    CCCC(=O)Nc1ccc2nc(SCC(=O)N3CCCC3)sc2c1     inactive
7     Oc1[nH]c2ccc(Br)cc2c1N=NC(=S)N1CCOCC1       active
8  CN(Cc1cnc2nc(N)nc(N)c2n1)c1ccc(C(=O)N[C@@H](CCC(=O)O)C(=O)O)cc1       active

###

protocol details: Confirmatory qHTS for Inhibitors of ATXN expression; note: nearly all actives have a fitted effect of over 65% in size; note: potency is the fitted concentration of half-maximal effect
experimental context: ATXN2-luciferase reporter cells, luminescence, 24 h; series mostly up to 11.5 µM
Out of some 2,100 compounds screened, about 940 (45%) were called active. Another 48% or so got no clear call; they are omitted. So high a share suggests a set chosen from earlier hits. The list shows a part of the results.
readout type: Potency

                                    molecule             result
 0   CCN(CC)c1ccc(/C=N/NC(=O)Cc2cccs2)c(O)c1   2.82 µM (active)
 1  Cc1cccc2c1-c1sc(C(=O)Nc3ccccc3N3CCN(C)CC3)cc1CO2   25.1 µM (active)
 2  COc1cccc(/C=N/NC(=O)CNC(=O)C2COc3ccccc3O2)c1O (stereo not given)   8.91 µM (active)
 3  N#Cc1ccccc1NC(=O)C1SC(=Nc2ccccc2)C(C(=O)Nc2ccc(Cl)cc2)=C1N (stereo not given)           inactive
 4              O=C(C(Br)=Cc1ccccc1)c1ccccc1     10 µM (active)
 5  Cc1ccc(F)cc1-c1cc2nc(NCCCN(C)C)n(C)c(=O)c2s1   17.8 µM (active)
 6  COc1ccc(O)c(/C=N/NC(=O)CSc2nnc(C)n2-c2ccccc2)c1   2.82 µM (active)
 7  Cc1cnc(NC(=O)C2CC(=O)N(c3cccc(Cl)c3)C2)s1 (stereo not given)  0.112 µM (active)
 8  Cc1cc(Cl)ccc1-c1cc2nc(NCCCN(C)C)n(C)c(=O)c2s1           inactive
 9  CCCCCn1c(CN2CCN(c3cccc(Cl)c3)CC2)nc2c1c(=O)[nH]c(=O)n2C   25.1 µM (active)
10  CNc1ccc(Br)cc(C(=O)/C=C/c2ccc3c(c2)OCO3)c1=O           inactive
11              Clc1ccc2c(NCc3ccccc3)ccnc2c1   15.8 µM (active)
12  COc1ccc2c(-c3ccc(S(N)(=O)=O)cc3)c(-c3ccc(S(C)(=O)=O)cc3)sc2c1   28.2 µM (active)
13     CCCCOc1ccc(NC2=NC3(CCCC3)N=C(N)N2)cc1           inactive
14  O=C(CNC(=O)c1ccc2c(c1)OCO2)N/N=C/c1cc(Br)ccc1O   3.55 µM (active)
